The measured values listed here are drawn from patent EP4635951A1.

Below: a set of entries, each annotated with reported solubility at 1 h.
# assay text: physchem
# condition set: FaSSGF, 37 °C, fassgf or other biorelevant, thermodynamic from solid

molecule: O=C(O)c1ccc2nc(CN3CCC(c4cccc(OCc5ccc(C6COC6)cc5F)n4)CC3)n(C[C@@H]3CCO3)c2c1 [Compound I]
recorded result: 100 µg/mL

Pending molecule:
// recorded solubility at 1 h for O=C(O)c1ccc2nc(CN3CCC(c4cccc(OCc5ccc(C6COC6)cc5F)n4)CC3)n(C[C@@H]3CCO3)c2c1 [Crystal Form A of Compound Z] : 40 µg/mL

----------
# assay text: physchem
# condition set: fassif
recorded metric: solubility at 2 h (µg/mL)
Output spec: scalar in µg/mL, unitless text.

// recorded solubility at 2 h for O=C(O)c1ccc2nc(CN3CCC(c4cccc(OCc5ccc(C6COC6)cc5F)n4)CC3)n(C[C@@H]3CCO3)c2c1 [Crystal Form A of Compound Z] : 130
